protein stability index listing for selected variants.
B1: SLC6A17 (parent)
chain: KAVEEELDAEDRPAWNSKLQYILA

Variants of: B1
Assay: protein stability index of a GFP-peptide fusion (GPS, HEK-293T) (PSI 1-6); higher = more stable;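 note: lentivirally expressed fusions sorted by FACS into six bins by GFP to DsRed ratio, PSI derived from sequencing read proportions per bin multiplied by bin number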
Details: c terminus: a fixed tail appended
Answer with a number only.

Record excerpt, results attached:
A24W    2.06
D8S    3.15
E10N    2.57
Q20D    3.56
D8R    2.75

Per the records, this variant ( `L23W` ) has protein stability index equal to 3.19

Consider `N16T` . Its measured protein stability index is 2.07

# protein stability index of `L7I` = 2.08

response.value for `A14L` (field: protein stability index) = 1.99

The recorded protein stability index for entry `L7N` equals 3.42
